TEST_TARGET: Thromboxane-A synthase (Rattus norvegicus) (UniProt P49430)
Sequence (P49430 whole entry): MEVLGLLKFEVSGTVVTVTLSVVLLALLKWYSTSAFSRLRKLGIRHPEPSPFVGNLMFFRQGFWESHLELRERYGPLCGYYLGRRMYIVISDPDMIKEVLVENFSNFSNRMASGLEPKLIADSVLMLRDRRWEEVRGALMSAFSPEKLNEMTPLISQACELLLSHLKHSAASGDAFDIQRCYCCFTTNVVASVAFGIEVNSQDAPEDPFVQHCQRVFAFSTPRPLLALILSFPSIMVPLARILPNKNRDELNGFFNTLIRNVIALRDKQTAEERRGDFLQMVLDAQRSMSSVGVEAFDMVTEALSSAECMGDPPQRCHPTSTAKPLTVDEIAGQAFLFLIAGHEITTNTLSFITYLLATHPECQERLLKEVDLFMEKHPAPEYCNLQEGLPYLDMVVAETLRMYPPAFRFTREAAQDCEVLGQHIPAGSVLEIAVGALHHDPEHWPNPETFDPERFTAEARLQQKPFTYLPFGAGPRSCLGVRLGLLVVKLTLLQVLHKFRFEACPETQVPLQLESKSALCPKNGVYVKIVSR
ASSAY_INFO: Tested ex vivo against TXA2 production in rat serum at 1 hr after peroral dose of 30 mg/kg and anesthetized with ether
Assay type: functional, organism-based
Parameters: dose 30 mg/kg
Label NO if inhibition falls below 80%; label YES in every other case.

> print(dat)
                               sample.smiles  classification
 1              CCn1nc(-c2cncs2)c2ccccc2c1=O              NO
 2      O=c1c2ccccc2c(-c2cccnc2)nn1CCn1cnnn1              NO
 3  Cn1c(=O)c2[nH]cnc2n(C)c1=O.Cn1c(=O)c2[nH]cnc2n(C)c1=O.NCCN              NO
 4              Cn1nc(-c2cccnc2)c2ccccc2c1=O             YES
 5                 Oc1nnc(-n2ccnc2)c2ccccc12             YES
 6             O=C(O)/C=C/c1ccc(Cn2ccnc2)cc1             YES
 7      O=c1c2ccccc2c(-c2cccnc2)nn1Cc1ccccc1             YES
 8              CCn1nc(-n2ccnc2)c2ccccc2c1=O              NO
 9           CCCCn1nc(-c2cccnc2)c2ccccc2c1=O             YES
10      CCOC(=O)Cn1nc(-c2cccnc2)c2ccccc2c1=O              NO
11              CCn1nc(-c2nccs2)c2ccccc2c1=O              NO
12             CCn1nc(-c2cccnc2)c2ccccc2c1=O             YES
13            CCCn1nc(-c2cccnc2)c2ccccc2c1=O             YES
14               Cn1nc(-c2cncs2)c2ccccc2c1=O             YES
15                 Oc1nnc(-c2cncs2)c2ccccc12              NO

----------
TEST_TARGET: Thromboxane-A synthase (Homo sapiens)
Sequence (P24557 whole entry): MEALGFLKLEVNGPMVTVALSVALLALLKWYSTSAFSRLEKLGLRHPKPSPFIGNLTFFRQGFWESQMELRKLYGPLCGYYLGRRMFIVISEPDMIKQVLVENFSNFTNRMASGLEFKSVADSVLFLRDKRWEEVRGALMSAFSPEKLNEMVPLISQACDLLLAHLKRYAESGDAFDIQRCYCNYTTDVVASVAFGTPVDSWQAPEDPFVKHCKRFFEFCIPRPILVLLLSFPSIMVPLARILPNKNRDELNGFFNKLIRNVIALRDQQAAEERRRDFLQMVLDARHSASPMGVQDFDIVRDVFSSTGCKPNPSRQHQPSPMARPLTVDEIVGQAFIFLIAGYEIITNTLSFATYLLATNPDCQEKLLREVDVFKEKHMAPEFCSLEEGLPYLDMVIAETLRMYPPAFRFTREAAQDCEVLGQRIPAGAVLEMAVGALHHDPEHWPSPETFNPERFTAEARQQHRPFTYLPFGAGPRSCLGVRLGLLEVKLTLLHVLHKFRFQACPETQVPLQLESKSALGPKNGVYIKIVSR
ASSAY_INFO: Tested in vitro against TXA2 synthetase inhibitory activity in human platelet
In this section, each of the molecules is paired with its reported IC50.
PROPERTY_LABEL: IC50 (µM)

> print(dat)
                   sample.smiles                            test.target  endpoint.value
1    Cn1nc(-c2cncs2)c2ccccc2c1=O  Thromboxane-A synthase (Homo sapiens)             0.5
2  CCn1nc(-c2cccnc2)c2ccccc2c1=O  Thromboxane-A synthase (Homo sapiens)            27.9
